Tested on: KRAS-mutant PDC multicell tumor spheroid viability;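 also: viability read after seven days of drug exposure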
Measurement description: Anticancer human tumor 521955-158-R2-J5-PDC patient-derived pancreatic carcinoma cell line growth inhibition [KRAS2]
Test conditions: second compound 0.1 µM; first compound 3.16 µM; hits give low values
Measured property: viability, T/C (%)
# unit: % | format: bare number

CCNC(=O)CC1N=C(c2ccc(Cl)cc2)c2cc(OC)ccc2-n2c(C)nnc21 (stereo not drawn) + C=CC(=O)N1CCN(c2nc(=O)n(-c3c(C)ccnc3C(C)C)c3nc(-c4c(O)cccc4F)c(F)cc23)C(C)C1 = 39.9

Query :: Give KRAS-mutant PDC multicell tumor spheroid viability viability, T/C for CCNC(=O)CC1N=C(c2ccc(Cl)cc2)c2cc(OC)ccc2-n2c(C)nnc21 (stereo not drawn) + CNCc1ccccc1-c1csc(C(C)Nc2nc(C)nc3cc(OC)c(OC)cc23)c1
Result :: 32

Query :: Give KRAS-mutant PDC multicell tumor spheroid viability viability, T/C for O=C(c1cc(Cc2n[nH]c(=O)c3ccccc23)ccc1F)N1CCN(C(=O)C2CC2)CC1 + COc1cc2nc(C)nc(NC(C)c3cc(N)cc(C(F)(F)F)c3)c2cc1OC1CCOC1
Result :: 75.5

The measured values listed here are drawn from PubChem BioAssay AID1963871.
